Consider the following IC50 data for UniProtKB Q6V1X1, collected from several reports.

Example entries begin here.
# COMPOUND, IC50
measured = [
    ("Cl.Cn1c(=O)c2c(cc(N3CCC[C@@](C)(N)C3)n2Cc2cc(F)ccc2Cl)n(C)c1=O", "> 10 µM"),
    ("C[C@H](c1nc(-c2ccc(Cl)cc2Cl)no1)[C@H](N)C(=O)N1CCCC1.O=C(O)C(F)(F)F", "> 100 µM"),
    ("NCCCC[C@H](N)C(=O)N1CCC(O)C1 (some centres undefined)", "139 µM"),
    ("CC(=O)N(Cc1ccccc1)[C@H]1CC[C@H]([C@H](N)Cc2cc(F)ccc2F)CC1", "> 100 µM"),
    ("N[C@@H](CC(=O)N1CCn2c(nnc2C(F)(F)F)C1)Cc1c(F)ccc(F)c1F", "> 100 µM"),
]

Exam item: Param item = `CC#CCn1c(N2CCC[C@@H](N)C2)nc2c1c(=O)n(Cc1cccc(F)c1C(=O)OC)c(=O)n2C` ; retrieve measured IC50.
Marked response: > 100 µM

Exam item: # iterate: `C[C@@H](c1ccc(C(F)(F)F)cc1)[C@H](N)C(=O)N1CC[C@H](F)C1`
Marked response: > 100 µM

Exam item: Try this compound next: `CC1(C)c2cnc(C3CC3)nc2CN1[C@H]1CO[C@H](c2cc(F)ccc2F)[C@@H](N)C1`
Marked response: > 100 µM

----------
Literature roundup of UniProtKB Q6V1X1 data, read-out pIC50.
pIC50: −log10 of the molar value.

Use these answered entries as a reference point.
# COMPOUND, pIC50
records = [
    ("CN(C)C(=O)[C@@H](c1ccc(-c2ccc3nccn3n2)cc1)[C@H](N)C(=O)N1CC[C@H](F)C1", "< 4.00"),
    ("N[C@H]1CN(c2ccccc2)CC[C@@H]1c1cc(F)c(F)cc1F", 4.48),
    ("CS(=O)(=O)c1ccc(-c2noc([C@@H](CCO)[C@H](N)C(=O)N3CC[C@H](F)C3)n2)c(Cl)c1", "< 4.00"),
    ("CC#CCn1c(N2CCC[C@@H](N)C2)cc(=O)n(Cc2ccc3cc(Br)ccc3n2)c1=O", "< 4.00"),
]

Exam item: May I ask what pIC50 has been recorded for `Cc1ccc2c(c1)nc1n2C[C@H](N)[C@@H](c2cc(F)c(F)cc2F)C1` ?
Marked response: < 4.00

Exam item: Quick one: `Cl.N[C@H]1Cn2c(nc3cnccc32)C[C@@H]1c1cc(F)c(F)cc1F`
Marked response: < 4.00

Exam item: // repeat for `Cc1ccc(NC(=O)CC(C)(C)NCC(=O)N2CCC[C@H]2C#N)cc1C` and report
Marked response: < 4.70

Exam item: Moving on to the next compound: N[C@@H](CC(=O)N1CCn2c(nnc2C(F)(F)F)C1Cc1ccccc1C(F)(F)F)Cc1cc(F)c(F)cc1F (stereo in doubt; 44a)
Marked response: < 4.00

Exam item: Same question, `CN(C)C(=O)[C@@H](c1ccc(-c2ccc3nncn3c2)cc1)[C@H](N)C(=O)N1CC[C@H](F)C1.O=C(O)C(F)(F)F` this time
Marked response: < 4.00

----------
We begin with IC50 values for Dipeptidyl peptidase 8 (Homo sapiens, UniProt Q6V1X1), as collected from the published literature.

Observe how each entry below is paired with its result.
# COMPOUND, IC50
rows = [
    ("NCC(=O)N1CCCC1", "> 1000 µM"),
    ("CN(C)C(=O)[C@@H](c1ccc(N(C)C(=O)c2ccc(F)cc2)cc1)[C@H](N)C(=O)N1CC[C@H](F)C1.O=C(O)C(F)(F)F", "> 100 µM"),
    ("N[C@H]1CN(c2ncccc2C(F)(F)F)CC[C@@H]1c1cc(F)c(F)cc1F", "> 100 µM"),
    ("Cc1csc2nc(N3CCC[C@@H](N)C3)n(Cc3ccccc3C#N)c(=O)c12", "> 25 µM"),
]

Turning now to a further compound:
Exam item: API: value(readout= IC50, system= Dipeptidyl peptidase 8 (Homo sapiens, UniProt Q6V1X1), query= CC(=O)N(C)C1CCC([C@H](C(=O)N(C)C)[C@H](N)C(=O)N2CC[C@H](F)C2)CC1.Cl (stereo not given in full) )
Marked response: > 100 µM
